- assayed.system: AGO2 (loaded with guide RNA) (Homo sapiens, UniProt Q9UKV8 1-859)
- Sequence (Q9UKV8 whole entry): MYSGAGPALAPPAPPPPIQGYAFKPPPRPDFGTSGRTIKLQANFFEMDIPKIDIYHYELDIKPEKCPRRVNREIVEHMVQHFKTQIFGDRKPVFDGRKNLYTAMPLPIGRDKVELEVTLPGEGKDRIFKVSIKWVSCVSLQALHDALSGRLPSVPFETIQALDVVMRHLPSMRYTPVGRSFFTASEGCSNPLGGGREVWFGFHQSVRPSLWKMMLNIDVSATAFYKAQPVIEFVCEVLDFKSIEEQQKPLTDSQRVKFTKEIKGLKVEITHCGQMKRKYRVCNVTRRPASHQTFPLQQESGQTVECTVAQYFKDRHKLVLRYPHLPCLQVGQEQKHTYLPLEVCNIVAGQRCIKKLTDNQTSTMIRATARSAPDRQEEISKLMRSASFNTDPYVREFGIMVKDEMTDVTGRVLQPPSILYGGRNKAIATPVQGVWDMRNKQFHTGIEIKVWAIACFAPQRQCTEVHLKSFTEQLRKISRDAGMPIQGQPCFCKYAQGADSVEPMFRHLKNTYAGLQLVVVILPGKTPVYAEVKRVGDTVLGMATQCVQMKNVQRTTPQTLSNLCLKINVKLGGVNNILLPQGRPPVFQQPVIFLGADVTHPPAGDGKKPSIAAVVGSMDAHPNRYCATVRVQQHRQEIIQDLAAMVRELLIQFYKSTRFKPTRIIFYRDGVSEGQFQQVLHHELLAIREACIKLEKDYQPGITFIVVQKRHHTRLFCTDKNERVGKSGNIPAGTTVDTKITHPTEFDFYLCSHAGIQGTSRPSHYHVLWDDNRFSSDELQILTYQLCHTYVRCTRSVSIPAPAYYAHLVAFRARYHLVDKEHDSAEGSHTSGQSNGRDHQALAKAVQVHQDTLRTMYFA
- assay.summary: filter binding; upper bound, ~5 pM; 18 mM HEPES pH 7.4, 100 mM K-acetate, 1 mM Mg-acetate, 0.01% IGEPAL, 0.01 mg/mL yeast tRNA, 5 mM DTT, BSA, glycerol, 37 C, 4 h, 1-5 pM target; kinetics with 10
- assay.setup: protein: recombinant; tags: 3xFLAG-SUMOEu1 (removed by SENPEuB cleavage); label: 32P target; g11-23 and g2-7 paired, offset +2
assay.readout: Kd

miR-155 mut / m11_23|+2|m2_7 (mixed, 5'-phosphate guide) RNA 1: UUCGUGCUAAUCGUGAUAGGGGU RNA 2: UUUUACCCCUAUCACGACCUUUGCACGAUUUU yielded Kd of < 5 pM

Cited source for all entries: paper PMC12529927
